The measured values listed here are drawn from patent US9643953B2.

Listed here are molecules together with their documented IC50.
# targetDesc: catalytic domain of human Bub1 (amino acids 704-1085) (Homo sapiens, UniProt O43683)
# Construct: catalytic domain of human Bub1 (amino acids 704-1085); His6 (N); made in house; host or cells: Hi5 insect cells
# Sequence (O43683 704-1085): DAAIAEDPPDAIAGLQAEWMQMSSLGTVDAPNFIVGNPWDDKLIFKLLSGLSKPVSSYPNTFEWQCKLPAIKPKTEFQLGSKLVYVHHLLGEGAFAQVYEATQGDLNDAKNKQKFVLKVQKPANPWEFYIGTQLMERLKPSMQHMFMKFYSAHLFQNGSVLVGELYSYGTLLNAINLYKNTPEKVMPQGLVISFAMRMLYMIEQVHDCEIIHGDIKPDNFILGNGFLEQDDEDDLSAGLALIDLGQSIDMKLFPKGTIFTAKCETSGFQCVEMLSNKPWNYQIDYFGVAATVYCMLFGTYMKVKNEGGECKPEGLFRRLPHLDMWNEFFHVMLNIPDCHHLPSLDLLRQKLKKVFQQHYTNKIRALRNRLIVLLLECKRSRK
# assayRemarks: Bub1 kinase assay (TR-FRET)
# Format: biochemical
# assaySetup: TR-FRET, ATP 10 μM, peptide substrate 1 μM, 60 min at 22° C.; read-out: Biological Assay 1: Bub1 kinase assay median IC50
Write the figure, then the unit, nothing else.

Some molecules with known IC50 results, for comparison:
Exercise: # returns recorded IC50 (system: catalytic domain of human Bub1 (amino acids 704-1085) (Homo sapiens, UniProt O43683)) for CCOc1cc(F)c(Cn2nc(-c3ncc(OCC[S+](C)[O-])c(Nc4ccncc4)n3)c(C)c2C2CC2)c(F)c1 (racemic) [Example 2-8-1]
Solution: 4.19 nM

Exercise: # returns recorded IC50 (system: catalytic domain of human Bub1 (amino acids 704-1085) (Homo sapiens, UniProt O43683)) for `COc1cnc(-c2cc(C3CC3)n(Cc3ccccc3)n2)nc1Nc1ccncc1`
Solution: 516 nM

Exercise: # returns recorded IC50 (system: catalytic domain of human Bub1 (amino acids 704-1085) (Homo sapiens, UniProt O43683)) for `CCOc1cc(F)c(Cn2nc(-c3ncc(OCC4(CO)COC4)c(Nc4ccncc4)n3)c(C)c2C2CC2)c(Sc2ccccc2)c1`
Solution: 249 nM

---
Exercise: # returns recorded IC50 (system: catalytic domain of human Bub1 (amino acids 704-1085) (Homo sapiens, UniProt O43683)) for CCOc1cc(F)c(Cn2nc(-c3ncc(OCC[S+](C)[O-])c(Nc4ccncc4)n3)c(C)c2C2CC2)c(F)c1 (single isomer, unassigned; enantiomer 2) [Example 2-8-3]
Solution: 6.17 nM

====

# targetDesc: catalytic domain of human Bub1 (amino acids 704-1085) (Homo sapiens)
# Construct: catalytic domain of human Bub1 (amino acids 704-1085); His6 (N); made in house; host or cells: Hi5 insect cells
# assayRemarks: Bub1 kinase assay (TR-FRET)
# Assay type: biochemical
# assaySetup: Biological Assay 1: Bub1 kinase assay median IC50, TR-FRET, ATP 10 μM, peptide substrate 1 μM, 60 min at 22° C.
For each record, check the reported IC50: if it is below 10 nM write t, else write f.

Field: example entries. Status: answers known.
Exercise: Dear colleague, could you confirm whether IC50 of `CCOc1cc(F)c(Cn2nc(-c3ncc(OC)c(Nc4ccncc4C(N)=O)n3)c(C)c2C2CC2)c(F)c1` falls below 10 nM? Thanks.
Solution: f

Exercise: Dear colleague, could you confirm whether IC50 of `CCOc1cc(F)c(Cn2nc(-c3ncc(OC)c(Nc4ccncc4)n3)c(C)c2N(C)C)c(F)c1` falls below 10 nM? Thanks.
Solution: f

Exercise: Dear colleague, could you confirm whether IC50 of `CCOc1cc(F)c(Cn2nc(-c3ncc(OCCCSC)c(Nc4ccncc4)n3)c(C)c2C2CC2)c(F)c1` falls below 10 nM? Thanks.
Solution: f

Exercise: Dear colleague, could you confirm whether IC50 of `CCOc1cc(F)c(Cn2nc(-c3ncc(OCCO)c(Nc4ccncc4)n3)c(C)c2C2CC2)c(F)c1` falls below 10 nM? Thanks.
Solution: t

---
Exercise: Dear colleague, could you confirm whether IC50 of `CCOc1cc(F)c(Cn2nc(-c3ncc(OCCCS(C)(=O)=O)c(Nc4ccncc4)n3)c(C)c2C2CC2)c(F)c1` falls below 10 nM? Thanks.
Solution: t
